Target: HLA-A*02:01
Experiment: IEDB peptide-MHC binding, purified MHC/competitive/fluorescence; filed as Kd, often an IC50 or EC50 that approximates it; bounds were set here for any values at or beyond the usual limits of such assays
Conditions: source organism: Salmonella enterica subsp. enterica serovar Typhi
pKd: −log10 of the molar value.
Consider the following sequences and their measured pKd readings.

MSAIVSCRY	≤ 4.70

# input for lookup
*Q* Quick one: pKd of NTDEIPELI ?
*A* ≤ 4.70

---

Biological target: HLA-A*29:02
Experiment: IEDB peptide-MHC binding, purified MHC/competitive/radioactivity; filed as Kd, often an IC50 or EC50 that approximates it; bounds were set here for any values at or beyond the usual limits of such assays
Details: source organism: Mammarenavirus machupoense
MEASURED_PROPERTY: pKd
Schema: pKd number; meaning minus log10 of the concentration expressed in molar units.

*Q* Quick one: pKd of CGDPSSFEY ?
*A* 6.08

---

Biological target: HLA-A*03:01
Assay: IEDB peptide-MHC binding, purified MHC/competitive/radioactivity; filed as Kd, often an IC50 or EC50 that approximates it; bounds were set here for any values at or beyond the usual limits of such assays
Conditions: source organism: Mammarenavirus machupoense
MEASURED_PROPERTY: Kd (µM)
Entry rule: numbers only, all in µM.

YCSTNHLSK	19.2
SIQKNTIFK	0.0104
SSFDYCGMDH	13.8

# input for lookup
*Q* Query the reported Kd for HLA-A*03:01; item: LNNSFYYMK
*A* 7.24

---

Molecular target: HLA-B*40:01
Assay: IEDB peptide-MHC binding, purified MHC/direct/fluorescence; filed as Kd, often an IC50 or EC50 that approximates it; bounds were set here for any values at or beyond the usual limits of such assays
Details: source organism: Mycobacterium avium subsp. paratuberculosis
MEASURED_PROPERTY: pKd
Schema: pKd number; meaning minus log10 of the concentration expressed in molar units.

*Q* Quick one: pKd of KEHKGVGFL ?
*A* 7.52

---

Target: HLA-A*02:01
Assay: IEDB peptide-MHC binding, purified MHC/competitive/radioactivity; bounds were set here for any values at or beyond the usual limits of such assays
Details: source organism: Hepatitis B virus subtype adw2
MEASURED_PROPERTY: pIC50
Schema: pIC50 number; meaning minus log10 of the concentration expressed in molar units.

*Q* Quick one: pIC50 of SAICSVVRR ?
*A* 5.84

---

Biological target: HLA-A*11:01
Assay: IEDB peptide-MHC binding, purified MHC/competitive/radioactivity; filed as Kd, often an IC50 or EC50 that approximates it; bounds were set here for any values at or beyond the usual limits of such assays
Details: source organism: Vaccinia virus WR
MEASURED_PROPERTY: log10 of Kd (log10 of the value in nM)
The common logarithm of Kd in nM is what is listed.

CLEWLRAKRK	4.29
YLIHDNIMY	4.17
QMDSMEALEY	2.88
EIIFLKLFK	0.10
QTVDFTDCR	2.54

*Q* Query the reported log10 of Kd for HLA-A*11:01; item: AARILSEKRK
*A* 3.50

*Q* Query the reported log10 of Kd for HLA-A*11:01; item: KAEMQLKIDK
*A* 2.10

*Q* Query the reported log10 of Kd for HLA-A*11:01; item: DADPPIPYSR
*A* 4.21

*Q* Query the reported log10 of Kd for HLA-A*11:01; item: SVNEYHMLK
*A* 0.35

*Q* Query the reported log10 of Kd for HLA-A*11:01; item: EIIFLKLFKK
*A* 1.25

*Q* Query the reported log10 of Kd for HLA-A*11:01; item: IQRFSSLRR
*A* 3.00

*Q* Query the reported log10 of Kd for HLA-A*11:01; item: SSKGNCAIK
*A* 3.33

---

Target: HLA-A*30:01
Experiment: IEDB peptide-MHC binding, purified MHC/direct/fluorescence; filed as Kd, often an IC50 or EC50 that approximates it; bounds were set here for any values at or beyond the usual limits of such assays
Details: source organism: Vibrio cholerae V52
MEASURED_PROPERTY: Kd (nM)
Entry rule: numbers only, all in nM.

*Q* Quick one: Kd of WSHRVTSPK ?
*A* 50

---

Target: HLA-A*33:01
Assay: IEDB peptide-MHC binding, purified MHC/competitive/radioactivity; filed as Kd, often an IC50 or EC50 that approximates it; bounds were set here for any values at or beyond the usual limits of such assays
Details: source organism: Dengue virus 4 Philippines/H241/1956
MEASURED_PROPERTY: pKd
Schema: pKd number; meaning minus log10 of the concentration expressed in molar units.

*Q* Quick one: pKd of NTTSKMLLNR ?
*A* 7.00

---

Target: HLA-B*15:01
Experiment: IEDB peptide-MHC binding, purified MHC/direct/fluorescence; filed as Kd, often an IC50 or EC50 that approximates it; bounds were set here for any values at or beyond the usual limits of such assays
Details: source organism: Vibrio vulnificus
MEASURED_PROPERTY: Kd

*Q* Quick one: Kd of EEVWRDPYL ?
*A* ≥ 20 µM

*Q* Quick one: Kd of QSDIAGAIH ?
*A* ≥ 20 µM

---

Molecular target: HLA-A*31:01
Test: IEDB peptide-MHC binding, purified MHC/competitive/radioactivity; filed as Kd, often an IC50 or EC50 that approximates it; bounds were set here for any values at or beyond the usual limits of such assays
Details: source organism: Vaccinia virus WR
MEASURED_PROPERTY: Kd (µM)
Entry rule: numbers only, all in µM.

Here is how some sequences turned out for Kd.
CLEWLRAKRK	2.72
YITIQDRPR	0.138
LVVISVIFY	10.7
RLSILSKDK	10.7
RTMPNESRVK	0.123

*Q* Quick one: Kd of SVNEYHMLK ?
*A* 0.00692

*Q* Quick one: Kd of DICSKHMDAR ?
*A* 1.48

*Q* Quick one: Kd of LSARNKLFKR ?
*A* 0.0169

*Q* Quick one: Kd of IFMRDWNSK ?
*A* 8.52

---

Consider the following sequences and their measured pKd readings.
Target: HLA-A*02:02
Assay: IEDB peptide-MHC binding, purified MHC/competitive/radioactivity; filed as Kd, often an IC50 or EC50 that approximates it; bounds were set here for any values at or beyond the usual limits of such assays
Settings: source organism: Trypanosoma cruzi
Schema: pKd number; meaning minus log10 of the concentration expressed in molar units.

Here is how some sequences turned out for pKd.
SLNRNFTLV	9.84
LLGLWGFATA	7.30
FANYNFTLL	10.08
ELLRPTTVV	5.22
RVSRPTTVV	5.21

# input for lookup
*Q* Quick one: pKd of FANYKFTLV ?
*A* 7.13

---

Molecular target: HLA-A*24:02
Experiment: IEDB peptide-MHC binding, purified MHC/competitive/radioactivity; filed as Kd, often an IC50 or EC50 that approximates it; bounds were set here for any values at or beyond the usual limits of such assays
Details: source organism: Homo sapiens
MEASURED_PROPERTY: Kd (nM)
Entry rule: numbers only, all in nM.

*Q* Quick one: Kd of AYSLTLQGL ?
*A* 45

---

Target: HLA-B*48:01
Assay: IEDB peptide-MHC binding, purified MHC/competitive/fluorescence; filed as Kd, often an IC50 or EC50 that approximates it; bounds were set here for any values at or beyond the usual limits of such assays
Conditions: source organism: Salmonella enterica subsp. enterica serovar Typhi
MEASURED_PROPERTY: Kd

*Q* Quick one: Kd of MSAIVSCRY ?
*A* ≥ 20 µM

---

Biological target: HLA-B*27:05
Test: IEDB peptide-MHC binding, purified MHC/competitive/fluorescence; filed as Kd, often an IC50 or EC50 that approximates it; bounds were set here for any values at or beyond the usual limits of such assays
Settings: source organism: Influenza A virus (A/Memphis/1/1978(H1N1))
MEASURED_PROPERTY: Kd (nM)
Entry rule: numbers only, all in nM.

*Q* Quick one: Kd of YRLFKHGLK ?
*A* 217

---

Consider the following sequences and their measured Kd readings.
Target: HLA-A*26:01
Experiment: IEDB peptide-MHC binding, purified MHC/competitive/radioactivity; filed as Kd, often an IC50 or EC50 that approximates it; bounds were set here for any values at or beyond the usual limits of such assays
Settings: source organism: Mammarenavirus brazilense

Here is how some sequences turned out for Kd.
GERSRCYSLY	≥ 69.7 µM
HTASGEHSL	16.5 µM

# input for lookup
*Q* Quick one: Kd of LFQLIFFLT ?
*A* ≥ 77.9 µM

---

Target: HLA-C*08:02
Experiment: IEDB peptide-MHC binding, purified MHC/direct/fluorescence; filed as Kd, often an IC50 or EC50 that approximates it; bounds were set here for any values at or beyond the usual limits of such assays
Conditions: source organism: Orthohantavirus khabarovskense
MEASURED_PROPERTY: Kd

*Q* Quick one: Kd of FSLPSSSSY ?
*A* ≥ 20 µM
